Hello, the source for this data is patent US20210104294A1, in case you need it.

Target: T1, HLA-A*01:01 (human, UniProt P04439-2 25-302)
T1 chain: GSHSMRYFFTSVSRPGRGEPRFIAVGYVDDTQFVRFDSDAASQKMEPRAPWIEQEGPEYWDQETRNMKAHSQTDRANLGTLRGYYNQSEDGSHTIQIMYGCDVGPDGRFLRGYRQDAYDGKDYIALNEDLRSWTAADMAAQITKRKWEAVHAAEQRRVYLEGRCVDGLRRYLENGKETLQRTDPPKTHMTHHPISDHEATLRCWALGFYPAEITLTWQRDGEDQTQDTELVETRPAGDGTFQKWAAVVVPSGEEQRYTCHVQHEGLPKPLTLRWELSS
Assay: in vitro peptide-MHC affinity measurement
value.type: IC50 (nM)

binder=FLWPEAFLY value_type=IC50 recorded_result=1.3
binder=DTEFPNFKY value_type=IC50 recorded_result=80.8
binder=YVPEHWEYY value_type=IC50 recorded_result=11.1
binder=KLDLLEQEY value_type=IC50 recorded_result=70.6
binder=TTDGYLLRL value_type=IC50 recorded_result=78.9
binder=ATDGKVLLW value_type=IC50 recorded_result=191
